Ref: ChEMBL document CHEMBL1150415

assay comment: Plasma concentration in collagen-induced arthritis mouse model at 100 mg/kg, po twice daily after 1.5 hrs
Assay type: ADME, organism-based
Design: dose 100 mg/kg, route oral
measure: concentration at 1.5 h (ng/mL)
// units = ng/mL; emit number, no label

Which concentration at 1.5 h is reported for this compound? O=C(O)c1ccc(OCCc2c(CCNS(=O)(=O)Cc3ccc(Cl)c(Cl)c3)n(C(c3ccccc3)c3ccccc3)c3ccc(Cl)cc23)cc1
4080

---

Test system: MC9
assay comment: Inhibition of PGF2alpha production in mouse MC9 cells
Assay type: functional, cell-based
measure: IC50 (nM)
Lab book: enter the figure in nM, no units written.

The following molecules have reported results that may help.
O=C(O)c1ccc(CCCc2c(CCNS(=O)(=O)Cc3ccc(Cl)c(Cl)c3)n(C(c3ccccc3)c3ccccc3)c3ccc(Cl)cc23)cc1 [EFIPLADIB] | 20
Cc1cccc(C)c1CS(=O)(=O)NCCc1c(CCCc2ccc(C(=O)O)cc2)c2cc(Cl)ccc2n1C(c1ccccc1)c1ccccc1 | 6
Cc1ccc(-c2cc(C(F)(F)F)nn2-c2ccc(S(N)(=O)=O)cc2)cc1 [CELECOXIB] | 400

Could you tell me which IC50 is on file for COc1ccc2cc([C@H](C)C(=O)O)ccc2c1 [NAPROXEN] ?
200

---

Recorded pIC50 for the following compounds
assay comment: Inhibition of cytosolic phospholipase A2alpha by GLU micelle assay
# pIC50 is unitless: minus log10 of the molar concentration; print number only

O=C(O)c1ccc(S(=O)(=O)CCc2c(CCNS(=O)(=O)Cc3ccccc3Cl)n(C(c3ccccc3)c3ccccc3)c3ccc(Cl)cc23)cc1 | 8.00
O=C(O)CCc1ccc(Cc2c(CCNS(=O)(=O)Cc3ccccc3)n(C(c3ccccc3)c3ccccc3)c3ccc(Cl)cc23)cc1 | 5.70
Cc1ccccc1CS(=O)(=O)NCCc1c(CCOc2ccc(C(=O)O)cc2)c2cc(Cl)ccc2n1C(c1ccccc1)c1ccccc1 | 7.22

From here, focus on the item given below.
May I ask what pIC50 has been recorded for O=C(O)c1ccc(OCCc2c(CCNS(=O)(=O)Cc3ccccn3)n(C(c3ccccc3)c3ccccc3)c3ccc(Cl)cc23)cc1 ?
6.40

---

assay comment: Plasma clearance in Sprague-Dawley rat at 2 mg/kg, iv
Type: ADME, organism-based
Design: dose 2 mg/kg, route intravenous
measure: clearance
Your answer should be a number followed by the unit of measure.

Sample answers from the record:
O=C(O)CCc1ccc(S(=O)(=O)CCc2c(CCNS(=O)(=O)Cc3ccccc3Cl)n(C(c3ccccc3)c3ccccc3)c3ccc(Cl)cc23)cc1 | 63 mL/min/kg
O=C(O)c1ccc(S(=O)(=O)CCc2c(CCNS(=O)(=O)Cc3ccccc3)n(C(c3ccccc3)c3ccccc3)c3ccc(Cl)cc23)cc1 | 54 mL/min/kg
O=C(O)c1ccc(CCCc2c(CCNS(=O)(=O)Cc3ccccc3Cl)n(C(c3ccccc3)c3ccccc3)c3ccc(Cl)cc23)cc1 | 7 mL/min/kg
O=C(O)CCc1ccc(S(=O)(=O)CCc2c(CCNS(=O)(=O)Cc3ccccc3)n(C(c3ccccc3)c3ccccc3)c3ccc(Cl)cc23)cc1 | 150 mL/min/kg
O=C(O)c1ccc(S(=O)(=O)CCc2c(CCNS(=O)(=O)Cc3ccc(Cl)c(Cl)c3)n(C(c3ccccc3)c3ccccc3)c3ccc(Cl)cc23)cc1 | 19 mL/min/kg
O=C(O)c1ccc(OCCc2c(CCNS(=O)(=O)Cc3c(F)cccc3F)n(C(c3ccccc3)c3ccccc3)c3ccc(Cl)cc23)cc1 | 32 mL/min/kg
O=C(O)c1ccc(S(=O)(=O)CCc2c(CCNS(=O)(=O)Cc3c(F)cccc3F)n(C(c3ccccc3)c3ccccc3)c3ccc(Cl)cc23)cc1 | 186 mL/min/kg
Cc1cccc(C)c1CS(=O)(=O)NCCc1c(CCS(=O)(=O)c2ccc(C(=O)O)cc2)c2cc(Cl)ccc2n1C(c1ccccc1)c1ccccc1 | 25 mL/min/kg

Which clearance reading was recorded for the compound Cc1cccc(C)c1CS(=O)(=O)NCCc1c(CCCc2ccc(C(=O)O)cc2)c2cc(Cl)ccc2n1C(c1ccccc1)c1ccccc1 ?
3 mL/min/kg

Which clearance value belongs to O=C(O)CCc1ccc(S(=O)(=O)CCc2c(CCNS(=O)(=O)Cc3ccc(Cl)c(Cl)c3)n(C(c3ccccc3)c3ccccc3)c3ccc(Cl)cc23)cc1 ?
10 mL/min/kg

What value of clearance has been reported for the following compound? Cc1cccc(C)c1CS(=O)(=O)NCCc1c(CCOc2ccc(C(=O)O)cc2)c2cc(Cl)ccc2n1C(c1ccccc1)c1ccccc1
13 mL/min/kg

Look up clearance for this compound: Cc1ccccc1CS(=O)(=O)NCCc1c(CCCc2ccc(C(=O)O)cc2)c2cc(Cl)ccc2n1C(c1ccccc1)c1ccccc1
6 mL/min/kg

---

assay comment: Plasma concentration in adjuvant-induced arthritis Lewis rat model at 50 mg/kg, po after 16 hrs
Type: ADME, organism-based
Parameters: dose 50 mg/kg, route oral
Form field: concentration at 16 h (one value per entry).
Dear colleague, please return just the value in ng/mL, with no unit written.

O=C(O)c1ccc(CCCc2c(CCNS(=O)(=O)Cc3ccc(Cl)c(Cl)c3)n(C(c3ccccc3)c3ccccc3)c3ccc(Cl)cc23)cc1 | 692

concentration at 16 h for Cc1cccc(C)c1CS(=O)(=O)NCCc1c(CCCc2ccc(C(=O)O)cc2)c2cc(Cl)ccc2n1C(c1ccccc1)c1ccccc1 ?
110

---

assay comment: Inhibition of cytosolic phospholipase A2alpha by GLU micelle assay
pIC50: −log10 of the molar value.
// label = Met if pIC50 is not less than 7, otherwise Not met

Previously resolved entries follow.
O=C(O)c1ccc(OCCc2c(CCNS(=O)(=O)Cc3ccc4ccccc4c3)n(C(c3ccccc3)c3ccccc3)c3ccc(Cl)cc23)cc1 | Not met
Cc1cccc(C)c1CS(=O)(=O)NCCc1c(CCCc2ccc(C(=O)O)cc2)c2cc(Cl)ccc2n1C(c1ccccc1)c1ccccc1 | Met
O=C(O)c1ccc(S(=O)(=O)CCc2c(CCNS(=O)(=O)Cc3ccc(Cl)c(Cl)c3)n(C(c3ccccc3)c3ccccc3)c3ccc(Cl)cc23)cc1 | Met

Could you tell me if the measured pIC50 of Cc1cccc(C)c1CS(=O)(=O)NCCc1c(CCOc2ccc(C(=O)O)cc2)c2cc(Cl)ccc2n1C(c1ccccc1)c1ccccc1 reaches 7 or more?
Met

Hello, I need to know if O=C(O)CCc1ccc(OCCc2c(CCNS(=O)(=O)Cc3ccccc3)n(C(c3ccccc3)c3ccccc3)c3ccc(Cl)cc23)cc1 has measured pIC50 not below 7. Thanks!
Not met

Form field: pIC50 at least 7? Entry: O=C(O)c1ccc(CCCc2c(CCNS(=O)(=O)Cc3ccc(Cl)c(Cl)c3)n(C(c3ccccc3)c3ccccc3)c3ccc(Cl)cc23)cc1
Met

Does O=C(O)c1ccc(S(=O)(=O)CCc2c(CCNS(=O)(=O)Cc3c(F)cccc3F)n(C(c3ccccc3)c3ccccc3)c3ccc(Cl)cc23)cc1 have a reported pIC50 of at least 7?
Met

Is it the case that O=C(O)c1ccc(NCCc2c(CCNS(=O)(=O)Cc3ccccc3)n(C(c3ccccc3)c3ccccc3)c3ccc(Cl)cc23)cc1 has pIC50 reaching or exceeding 7?
Not met

---

assay comment: Plasma concentration in adjuvant-induced arthritis Lewis rat model at 5 mg/kg, po after 16 hrs
Assay type: ADME, organism-based
Set-up: dose 5 mg/kg, route oral
measure: concentration at 16 h (ng/mL)
Give the quantity in ng/mL, number only.

Cc1cccc(C)c1CS(=O)(=O)NCCc1c(CCCc2ccc(C(=O)O)cc2)c2cc(Cl)ccc2n1C(c1ccccc1)c1ccccc1 | 26

Would you mind telling me what concentration at 16 h value was observed for Cc1ccc(-c2cc(C(F)(F)F)nn2-c2ccc(S(N)(=O)=O)cc2)cc1 [CELECOXIB] ?
129

Record request: concentration at 16 h value, item O=C(O)c1ccc(CCCc2c(CCNS(=O)(=O)Cc3ccc(Cl)c(Cl)c3)n(C(c3ccccc3)c3ccccc3)c3ccc(Cl)cc23)cc1 [EFIPLADIB]
34

---

assay comment: Plasma concentration in adjuvant-induced arthritis Lewis rat model at 25 mg/kg, po after 16 hrs
Assay type: ADME, organism-based
Design: dose 25 mg/kg, route oral
measure: concentration at 16 h (ng/mL)
Give the quantity in ng/mL, number only.

Cc1cccc(C)c1CS(=O)(=O)NCCc1c(CCCc2ccc(C(=O)O)cc2)c2cc(Cl)ccc2n1C(c1ccccc1)c1ccccc1 | 73

Now take the following molecule into account.
What concentration at 16 h value was documented for this molecule, O=C(O)c1ccc(CCCc2c(CCNS(=O)(=O)Cc3ccc(Cl)c(Cl)c3)n(C(c3ccccc3)c3ccccc3)c3ccc(Cl)cc23)cc1 [EFIPLADIB] ?
166

---

assay comment: Plasma concentration in collagen-induced arthritis mouse model at 100 mg/kg, po twice daily after 3 hrs
Type: ADME, organism-based
Design: dose 100 mg/kg, route oral
measure: concentration at 3 h (ng/mL)
Provide only the numeric value, understood in ng/mL.

Cc1cccc(C)c1CS(=O)(=O)NCCc1c(CCCc2ccc(C(=O)O)cc2)c2cc(Cl)ccc2n1C(c1ccccc1)c1ccccc1 | 923

# concentration at 3 h lookup, item O=C(O)c1ccc(CCCc2c(CCNS(=O)(=O)Cc3ccc(Cl)c(Cl)c3)n(C(c3ccccc3)c3ccccc3)c3ccc(Cl)cc23)cc1 [EFIPLADIB]
7200
